A collection of compounds and their measured collision cross section in nitrogen
- Test Name: collision cross section in nitrogen (drift tube, single-field); higher = larger gas-phase ion size;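 also: chemical standards at 10 µM analysed by drift tube IMS-QTOF MS in about 3.95 torr nitrogen, mean of duplicate injections differing ≤1%, mass error below 10 ppm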
- Condition Set: ion type: [M+Na]; ion source: ESI; ion mode: Positive
Result Type: collision cross section in nitrogen (Å²)

# Compound, Result Type, Quantitative Result
measured = [
    ("CCOC(=O)NCCC[Si](OCC)(OCC)OCC [Ethyl [3-(triethoxysilyl)propyl]carbamate]", "collision cross section in nitrogen", 171.4),
    ("CCCCCCCCCc1ccc(OCCOCCO)cc1", "collision cross section in nitrogen", 191.3),
    ("C=CC(=O)N1CN(C(=O)C=C)CN(C(=O)C=C)C1 [Hexahydro-1,3,5-tris(1-oxoallyl)-1,3,5-triazine]", "collision cross section in nitrogen", 160.1),
    ("OCCOCCOCCO", "collision cross section in nitrogen", 131.5),
    ("CCC(CO)(CO)COCC(CC)(CO)CO", "collision cross section in nitrogen", 159.6),
    ("C=CC(=O)OCC(C)OCC(C)OCC(C)OC(=O)C=C (stereo not drawn) [Tripropylene glycol diacrylate]", "collision cross section in nitrogen", 169.9),
    ("CC(CCOC(=O)c1ccccc1C(=O)OCC[C@@H](C)CC(C)(C)C)CC(C)(C)C (stereo partly drawn) [Bis(3,5,5-trimethylhexyl) phthalate]", "collision cross section in nitrogen", 219.6),
    ("CCCCCCOC(=O)CCCCC(=O)OCCCCCC [Dihexyl hexanedioate]", "collision cross section in nitrogen", 202.5),
]

----------
A collection of compounds and their measured collision cross section in nitrogen
- Test Name: collision cross section in nitrogen (drift tube, single-field); higher = larger gas-phase ion size
- Condition Set: ion type: [M+H]; ion source: APCI; ion mode: Positive
Where a name gives a salt, the structure may show the parent alone.
Result Type: collision cross section in nitrogen (Å²)

# Compound, Quantitative Result
records = [
    ("Clc1cc(Cl)c2c(c1)N=C1CCCCCN1C2", 158.5),
    ("CCCCOCCOCCOCCOCCO", 157.1),
    ("CN(C)C(=N)NC(=N)N", 125.1),
    ("OCCc1ccncc1", 124.6),
    ("CCOc1ccc(NC(C)=O)cc1", 141.4),
    ("NC(N)=Nc1nc(CSCCC(N)=NS(N)(=O)=O)cs1", 168.7),
    ("COC(=O)N(C(=O)N1CO[C@@]2(C(=O)OC)Cc3cc(Cl)ccc3C2=N1)c1ccc(OC(F)(F)F)cc1", 206.6),
    ("COc1ccc2[nH]cc(CCNC(C)=O)c2c1", 153.7),
    ("CCN1CCCC1=O", 121.7),
    ("Cn1sccc1=O", 117.1),
    ("c1coc(CNc2[nH]cnc3ncnc2-3)c1", 144.3),
    ("N#C[C@@H]1CC(F)(F)CN1C(=O)CNC1CC2CCC(C1)N2c1ncccn1 (stereo partly specified)", 176.9),
    ("Cc1cc(Cl)ccc1N=CN(C)C [Chlordimeform]", 145.6),
    ("c1ccc(N=Nc2ccccc2)cc1", 139.5),
    ("CN(C)CCCN1c2ccccc2Sc2ccc(Cl)cc21 [Chlorpromazine hydrochloride]", 170.8),
    ("COC(=O)c1ccc(I)cc1S(=O)(=O)NC(=O)Nc1nc(C)nc(OC)n1 [Iodosulfuron methyl ester sodium salt]", 194.5),
    ("OCC(CO)n1cnc(-c2ccc(F)cc2)c1-c1ccnc(Oc2ccccc2)n1", 197.6),
    ("CC(=O)C(=NNc1ccc(-c2ccc(NN=C(C(C)=O)C(=O)Nc3ccc(C)cc3C)c(Cl)c2)cc1Cl)C(=O)Nc1ccc(C)cc1C", 238.9),
    ("CNC(=O)N(C)c1nnc(C(C)(C)C)s1", 150.4),
    ("COc1c2ccoc2cc2oc(=O)ccc12", 139.3),
    ("CC(=O)c1ccc2c(c1)[C@H](NC(=O)c1ccc(F)cc1)[C@@H](O)C(C)(C)O2", 184.1),
    ("CC(C)Nc1nc(Cl)nc(NC(C)C)n1", 154.9),
    ("S=c1[nH]c2ccccc2[nH]1", 128),
    ("CCN1C(=O)c2ccccc2C1=O [N-Ethylphthalimide]", 133.7),
    ("NCc1cccc(C2CCN(C(=O)c3ccc(C#Cc4ccccc4F)o3)CC2)c1", 192.1),
    ("Clc1ccc2c(c1)C(N1CCNCC1)=Nc1ccccc1O2", 172.4),
    ("CNC(=O)Oc1ccc(N(C)C)c(C)c1", 151.6),
    ("C[Si](Cn1cncn1)(c1ccc(F)cc1)c1ccc(F)cc1", 176.6),
    ("CCCN(CCC)c1c([N+](=O)[O-])cc(C(C)C)cc1[N+](=O)[O-]", 172.4),
    ("Nc1ccc(N=Nc2ccccc2)cc1", 146.1),
    ("COc1ccc2cc(S(=O)(=O)N[C@H](CC(=O)N[C@H](Cc3ccc(CN4[C@H](C)CCC[C@@H]4C)cc3)C(=O)N(C)C(C)C)c3ccc4c(c3)OCO4)ccc2c1", 266.1),
    ("CCC(Cc1ccccc1)(C(=O)c1ccc(N2CCOCC2)cc1)N(C)C (stereo unspecified)", 195.7),
    ("COC1=CC(=O)C[C@@H](C)[C@]12Oc1c(Cl)c(OC)cc(OC)c1C2=O", 182),
    ("CCC(C)c1cc(C(C)(C)C)cc(-n2nc3ccccc3n2)c1O (stereo unspecified)", 187.2),
    ("COC(=O)C1=C(C)NC(C)=C(C(=O)OCCN(C)Cc2ccccc2)C1c1cccc([N+](=O)[O-])c1 (stereo unspecified) [Nicardipine hydrochloride]", 213),
    ("O=P1(NCCCl)OCCCN1CCCl (stereo unspecified) [Ifosfamide]", 148.1),
]
